All values here come from ChEMBL document CHEMBL3044653.

test system: Brassica juncea; test: Post-emergence herbicidal activity against Brassica juncea assessed as inhibition at 75 g/hectare treated at two-leaf stage by green house assay; format: functional
assay metric: inhibition at 75 g/ha (%)
Enter your answer as a number in %; do not include the unit.

>  <compound>
Cc1cc(Cl)ccc1OCC(=O)OC(C)P1(=O)OCC(C)(C)CO1 (centres undefined)

>  <target system>
Brassica juncea

>  <reading>
100

$$$$
>  <compound>
CC1(C)COP(=O)(C(OC(=O)COc2ccc(Cl)cc2Cl)c2ccc(Cl)cc2Cl)OC1 (centres undefined)

>  <target system>
Brassica juncea

>  <reading>
55

$$$$
>  <compound>
CC(OC(=O)COc1ccc(Cl)cc1Cl)P1(=O)OCC(C)(C)CO1 (centres undefined)

>  <target system>
Brassica juncea

>  <reading>
95

$$$$
>  <compound>
CCCCC(OC(=O)COc1ccc(Cl)cc1Cl)P1(=O)OCC(C)(C)CO1 (centres undefined)

>  <target system>
Brassica juncea

>  <reading>
100

$$$$
>  <compound>
COP(=O)(OC)C(C)OC(=O)COc1ccc(Cl)cc1Cl (centres undefined) [CLACYFOS]

>  <target system>
Brassica juncea

>  <reading>
95

$$$$

Q: If you can, please state the reported inhibition at 75 g/ha value of CC(C)C(OC(=O)COc1ccc(Cl)cc1Cl)P1(=O)OCC(C)(C)CO1 (centres undefined) .
A: 100

Q: If you can, please state the reported inhibition at 75 g/ha value of CC1(C)COP(=O)(C(OC(=O)COc2ccc(Cl)cc2Cl)c2ccc(Cl)cc2)OC1 (centres undefined) .
A: 90

Q: If you can, please state the reported inhibition at 75 g/ha value of CC1(C)COP(=O)(C(OC(=O)COc2ccc(Cl)cc2Cl)c2ccco2)OC1 (centres undefined) .
A: 90

Q: If you can, please state the reported inhibition at 75 g/ha value of CC1(C)COP(=O)(C(OC(=O)COc2ccc(Cl)cc2Cl)c2ccccc2)OC1 (centres undefined) .
A: 95
